experiment-description: logP determination by HPLC (formic acid method)
Type: physicochemical
condition-notes: reversed-phase HPLC column (C18), pH 3.4, HPLC on reversed-phase column (C18), acidic range (pH 3.4), 55° C.; read-out: logP (HCOOH)
measurement-type: chromatographic logP
Answer with a number only.

Worked cases, chromatographic logP given:
COc1cc(OC)nc(-c2noc(-c3sc(-c4cccnc4)nc3C)n2)n1: 2.81
Cn1nc(-c2cccnc2)cc1-c1cccc(-c2ncccn2)n1: 1.12

Let us move to another entry and its chromatographic logP.
// returns reported chromatographic logP for input `Cc1nc(-c2cccnc2)sc1-c1ccn(-c2nc(Cl)ns2)n1` 3.76

###

experiment-description: logP determination by HPLC (formic acid method)
Format: physicochemical
condition-notes: reversed-phase HPLC column (C18), pH 3.4, HPLC on reversed-phase column (C18), acidic range (pH 3.4), 55° C.; read-out: logP (HCOOH)
Please respond with TRUE when measured chromatographic logP is strictly beneath 2, and with FALSE in all other cases.

Solved cases (2 shown):
Cc1nc(-c2cccnc2)sc1-c1ccnc(-c2cccc(Cl)n2)n1: FALSE
Cc1nc(-c2cccnc2)sc1-c1ccn(Cc2ccccn2)n1: TRUE

Below: the item to evaluate.
Strictly below 2 in chromatographic logP? `C#CC(C)(C)NC(=O)n1ccc(-c2sc(-c3cccnc3)nc2C)n1` FALSE

###

System: green peach aphid (Myzus persicae)
experiment-description: Myzus test (spray treatment)
Format: in vivo
condition-notes: foliar, application rate of 500 g/ha, sprayed Chinese cabbage leaf discs, read-out: activity (effect in %, aphids killed)
measurement-type: pest or weed control at 500 g/ha

Worked cases, pest or weed control at 500 g/ha given:
Cc1nc(-c2cccnc2)sc1-c1ccc(C(F)(F)F)nc1: ≥ 80%
Cc1nc(-c2cccnc2)sc1-c1ccn(C(=O)NCC(C)C)n1: ≥ 80%
Cc1nc(-c2cccnc2)sc1-c1ccn(C(=O)NCC2CC2)n1: ≥ 80%
c1cnc(-c2noc(-c3cnc(-c4cccnc4)s3)n2)nc1: ≥ 80%

// returns reported pest or weed control at 500 g/ha for input `c1cncc(-c2ncc(-c3cccc(-n4nccn4)n3)s2)c1` ≥ 80%

// returns reported pest or weed control at 500 g/ha for input `Cc1ccc(-c2nccc(-c3sc(-c4cccnc4)nc3C)n2)nc1C` ≥ 80%

// returns reported pest or weed control at 500 g/ha for input `Cc1nc(-c2cncc(F)c2)sc1-c1cccc(-c2ncccn2)n1` ≥ 80%

// returns reported pest or weed control at 500 g/ha for input `Cc1nc(-c2cccnc2)sc1-c1ccn(-c2nnc(C(F)F)s2)n1` ≥ 80%

// returns reported pest or weed control at 500 g/ha for input `CCCNC(=O)n1ccc(-c2sc(-c3cccnc3)nc2C)n1` ≥ 80%

// returns reported pest or weed control at 500 g/ha for input `COCCCNC(=S)n1ccc(-c2sc(-c3cccnc3)nc2C)n1` ≥ 80%

// returns reported pest or weed control at 500 g/ha for input `Cc1nc(-c2cccnc2)sc1-c1ccn(-c2ncccn2)n1` ≥ 80%

###

experiment-description: logP determination by HPLC (formic acid method)
Format: physicochemical
condition-notes: pH 3.4; values given in the preparation examples; formic acid method; read-out: logP (HCOOH)
# key: entry, value: chromatographic logP

COC(=O)c1cc(-c2cccnc2)nn1C (single isomer, unassigned) [drawing 76 isomer 1]: 0.84

// returns reported chromatographic logP for input COC(=O)c1cc(-c2cccnc2)n(C)n1 (single isomer, unassigned) [drawing 76 isomer 2] 0.77
